Reference for the values: PubChem BioAssay AID651687

Listed here are compounds together with their documented inhibition.
- test method notes: inhibitors of PGC1a acetylation signal, primary screen, cell-based, U2OS, AlphaScreen, inhibitor mode (AID 651687);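 further: 0% = neutral control wells and 100% = positive control wells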
- settings: AlphaScreen anti-acetyl-lysine, at 15.6 µM, active compounds read high, with virally co-expressed GCN5 acetyltransferase
About 600 (0.17%) of roughly 350,000 compounds were called active. Shown is part of a subset that was picked to be rich in actives.
API: value field is a number in %; no unit string.

COc1ccc(NC(=O)N2CC(=O)N3[C@H](CO)[C@@H](c4ccc(-c5ccc(C)cc5)cc4)[C@H]3C2)cc1; 5.16
CO[C@@H]1CN(C)C(=O)c2ccc(NS(=O)(=O)c3c(C)noc3C)cc2OC[C@H](C)NC[C@@H]1C; 14.4
COc1ccccc1N1CCC(N2CCN(CC(C)(C)C)C(CCO)C2)CC1 (stereo not drawn); 10.6

Exam item: Report inhibition for C[C@@H]1CCCCO[C@H](CN(C)C(=O)Nc2ccccc2)[C@H](C)CN([C@H](C)CO)C(=O)c2cc(N(C)C)ccc2O1
Marked response: 0.535

Exam item: Report inhibition for CO[C@@H]1CN(C)C(=O)c2ccc(NC(=O)c3ccccc3F)cc2OC[C@@H](C)N(CC2CCOCC2)C[C@H]1C
Marked response: -3.01

Exam item: Report inhibition for C[C@H](O)C#Cc1ccc([C@H]2[C@H](CO)N3CCCCN(C(=O)c4ccc(F)cc4)C[C@@H]23)cc1
Marked response: -4.78

Exam item: Report inhibition for CN1c2ccc(-c3cccc(F)c3)cc2[C@H]2[C@H](CCN2C(=O)c2cccc(F)c2)[C@H]1CO
Marked response: -7.12

Exam item: Report inhibition for C[C@H](CO)N1C[C@H](C)[C@@H](CN(C)C(=O)Cc2ccccn2)Oc2cc(-c3cccc(C(=O)N(C)C)c3)ccc2S1(=O)=O
Marked response: 0.377
